B1: MEF2-activating motif and SAP domain-containing transcriptional regulator, residues 170 to 204; numbered along this chain, Q6ZN01 (parent)
chain: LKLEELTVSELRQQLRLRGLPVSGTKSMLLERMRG

- Variants of: B1
- protocolText: abundance fitness (aPCA) (normalised: wild type 0, dead -1); higher = more abundant; growth selection in yeast, the domain comes from the species named
- measurementParameters: Homo sapiens
endpointLabel: abundance fitness
Output: the number by itself.

Examples with answers:
mutantcode=G35F endpointlabel="abundance fitness" numericresult=-0.295
mutantcode=E5A endpointlabel="abundance fitness" numericresult=-0.218
mutantcode=P21C endpointlabel="abundance fitness" numericresult=-0.347
mutantcode=E4S endpointlabel="abundance fitness" numericresult=-0.23
mutantcode=E10S endpointlabel="abundance fitness" numericresult=-0.454

Lab note: next variant to report on.
Q: Please report the recorded abundance fitness for "G19K" .
Result: -0.227

Data provenance is the Human Domainome abundance scans (Beltran et al. 2025).
